Target: NACHT, LRR and PYD domains-containing protein 3 (Mus musculus) (UniProt Q8R4B8)
Sequence (Q8R4B8 whole entry, the tested form may be a part): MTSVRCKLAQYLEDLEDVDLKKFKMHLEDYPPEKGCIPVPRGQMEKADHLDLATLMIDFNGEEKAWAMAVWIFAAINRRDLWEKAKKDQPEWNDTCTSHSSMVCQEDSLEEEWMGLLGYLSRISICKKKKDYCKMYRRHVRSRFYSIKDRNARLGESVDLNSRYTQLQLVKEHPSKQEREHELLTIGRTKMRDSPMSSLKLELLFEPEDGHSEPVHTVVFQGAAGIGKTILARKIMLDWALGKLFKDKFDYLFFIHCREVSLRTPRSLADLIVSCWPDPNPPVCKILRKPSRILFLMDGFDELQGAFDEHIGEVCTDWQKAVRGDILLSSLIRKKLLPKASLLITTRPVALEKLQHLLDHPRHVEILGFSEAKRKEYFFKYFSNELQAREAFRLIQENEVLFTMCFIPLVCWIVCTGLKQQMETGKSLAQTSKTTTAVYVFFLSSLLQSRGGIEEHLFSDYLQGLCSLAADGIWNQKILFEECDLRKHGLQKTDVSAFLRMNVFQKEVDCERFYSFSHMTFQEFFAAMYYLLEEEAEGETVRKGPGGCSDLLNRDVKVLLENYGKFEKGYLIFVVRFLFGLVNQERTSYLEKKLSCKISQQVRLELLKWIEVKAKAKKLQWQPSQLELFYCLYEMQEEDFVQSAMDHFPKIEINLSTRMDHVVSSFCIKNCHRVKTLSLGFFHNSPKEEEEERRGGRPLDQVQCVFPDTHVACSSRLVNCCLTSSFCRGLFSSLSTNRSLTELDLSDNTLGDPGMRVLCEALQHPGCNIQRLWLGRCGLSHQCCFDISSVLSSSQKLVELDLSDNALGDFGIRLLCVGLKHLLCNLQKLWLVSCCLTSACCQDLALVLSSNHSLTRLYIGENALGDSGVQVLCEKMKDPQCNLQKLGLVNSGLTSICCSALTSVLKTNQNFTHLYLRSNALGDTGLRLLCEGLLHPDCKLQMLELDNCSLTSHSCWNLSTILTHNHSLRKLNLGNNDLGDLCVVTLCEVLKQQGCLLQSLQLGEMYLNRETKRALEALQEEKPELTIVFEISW
Experiment: Inhibition of NLRP3 inflammasome in mouse J774.A1 cells assessed as reduction in TNF-alpha in presence of LPS at 0.1 to 1 uM pretreated for 1 hr followed by LPS stimulation measured after 24 hrs by ELISA method
Format: cell-based
Conditions: dose 0.1-1 µM, time 25.0 hrs
Calls of active or inactive are those of the source. The calls are words filed in the database; no cut-off is given here.
// classify into y = active, n = inactive

Consider the worked cases shown below.
Molecule: CCCC[Si](C)(C)C1=CC(=O)C(C/C=C(\C)CCC=C(C)C)=C(O)C1=O
Assayed target: NACHT, LRR and PYD domains-containing protein 3 (Mus musculus) (UniProt Q8R4B8)
Class name: n

Molecule: C=C(C)[C@@H]1CCC(C)=C[C@H]1C1=C(O)C(=O)C([Si](C)(C)C)=CC1=O
Assayed target: NACHT, LRR and PYD domains-containing protein 3 (Mus musculus) (UniProt Q8R4B8)
Class name: y

Molecule: CC(C)=CCC/C(C)=C/CC1=C(O)C(=O)C([Si](C)(C)C)=CC1=O
Assayed target: NACHT, LRR and PYD domains-containing protein 3 (Mus musculus) (UniProt Q8R4B8)
Class name: n

Proceed to the following item.
Name the outcome recorded for `CCCCCC[Si](C)(C)C1=CC(=O)C(C/C=C(\C)CCC=C(C)C)=C(O)C1=O` in the assay.
n
